# target_desc: HDAC8 (Homo sapiens)
# Sequence (Q9BY41 whole entry, species assumed): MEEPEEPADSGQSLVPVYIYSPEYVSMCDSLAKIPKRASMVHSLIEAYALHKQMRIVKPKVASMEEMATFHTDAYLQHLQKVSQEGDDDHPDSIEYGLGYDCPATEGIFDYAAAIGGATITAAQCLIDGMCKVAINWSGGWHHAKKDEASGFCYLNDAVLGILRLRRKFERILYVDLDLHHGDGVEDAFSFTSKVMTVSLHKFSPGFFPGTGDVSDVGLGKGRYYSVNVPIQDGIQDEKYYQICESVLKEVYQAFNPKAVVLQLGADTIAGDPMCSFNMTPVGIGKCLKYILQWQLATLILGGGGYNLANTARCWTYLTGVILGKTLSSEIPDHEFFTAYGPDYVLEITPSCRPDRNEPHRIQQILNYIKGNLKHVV
# protocol_notes: HDAC8 (FDL) Fluor de Lys assay
# Type: biochemical
# Parameters: obtained from C; Romier (academic laboratory, not a vendor)
pIC50: −log10 of the molar value.
measured_attribute: pIC50

(P) O=C(NO)C1CCN(CCNCc2ccc(Br)cc2)CC1 [DH88]
(Q) O=C(NO)C1CCN(CCNCc2ccccc2)CC1 [DH79]
Lower value for measured pIC50? Options: P , Q Please identify the chosen entry by its label.
Q
(Q: 5.70, P: 6.15)

* * *

# target_desc: TwinStrep-GST-HDAC10 (Homo sapiens, UniProt Q969S8)
# Construct: made in house; host or cells: Sf21 insect cells (baculovirus, pFastBac1)
# Sequence (Q969S8 whole entry): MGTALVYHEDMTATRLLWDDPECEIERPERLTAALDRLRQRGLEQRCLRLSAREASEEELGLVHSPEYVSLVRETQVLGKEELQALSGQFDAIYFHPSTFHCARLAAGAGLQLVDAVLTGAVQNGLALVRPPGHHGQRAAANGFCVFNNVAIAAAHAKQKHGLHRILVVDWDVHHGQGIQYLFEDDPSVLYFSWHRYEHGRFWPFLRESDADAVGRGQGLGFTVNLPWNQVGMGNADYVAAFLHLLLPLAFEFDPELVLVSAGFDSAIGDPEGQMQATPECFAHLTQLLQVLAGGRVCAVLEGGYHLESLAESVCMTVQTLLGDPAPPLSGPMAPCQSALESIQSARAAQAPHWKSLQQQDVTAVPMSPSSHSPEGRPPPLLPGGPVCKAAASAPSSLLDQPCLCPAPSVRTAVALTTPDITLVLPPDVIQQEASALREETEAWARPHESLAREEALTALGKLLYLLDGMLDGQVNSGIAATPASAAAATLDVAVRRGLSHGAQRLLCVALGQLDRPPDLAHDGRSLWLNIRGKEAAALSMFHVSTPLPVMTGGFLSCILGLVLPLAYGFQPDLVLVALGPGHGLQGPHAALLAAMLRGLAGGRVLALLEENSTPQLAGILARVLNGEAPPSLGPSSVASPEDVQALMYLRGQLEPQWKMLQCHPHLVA
# protocol_notes: HDAC10 TR-FRET assay (Tubastatin-AF647-Tracer displacement)
# Format: binding
# experimental_setup: TR-FRET, 60 min at rt; read-out: pIC50 HDAC10 FRET (converted)
measured_attribute: IC50 (nM)

Worked cases, answers included:
* CN(CCNC(=O)CS)CCNC(=O)c1ccccc1 | 12.6
* CN(CCCC(=O)NO)CCNC(=O)c1ccc(N)cc1 | 15.8
* CN(CCCC(=O)NO)CCc1nc2ccccc2[nH]1 | 6.31
* O=C(CC1CN(CCC(=O)Nc2ccccc2)C1)NO | 158
* CC(C)N(CCCC(=O)NO)CCC(=O)Nc1ccccc1 | 631

(A) CN(CCCC(=O)NO)CCNC(=O)c1cccc(N)c1
(B) CN(CCCC(=O)NO)CCNC(=O)c1ccc(-c2ccccc2)cc1
Just curious, which one has the larger IC50 reading, A or B ? Kindly state the label of the option you pick.
A
(A: 39.8 nM, B: 25.1 nM)

* * *

# target_desc: HDAC1 (Homo sapiens, UniProt Q13547)
# Construct: purchased BPS Bioscience 50051
# Sequence (Q13547 whole entry): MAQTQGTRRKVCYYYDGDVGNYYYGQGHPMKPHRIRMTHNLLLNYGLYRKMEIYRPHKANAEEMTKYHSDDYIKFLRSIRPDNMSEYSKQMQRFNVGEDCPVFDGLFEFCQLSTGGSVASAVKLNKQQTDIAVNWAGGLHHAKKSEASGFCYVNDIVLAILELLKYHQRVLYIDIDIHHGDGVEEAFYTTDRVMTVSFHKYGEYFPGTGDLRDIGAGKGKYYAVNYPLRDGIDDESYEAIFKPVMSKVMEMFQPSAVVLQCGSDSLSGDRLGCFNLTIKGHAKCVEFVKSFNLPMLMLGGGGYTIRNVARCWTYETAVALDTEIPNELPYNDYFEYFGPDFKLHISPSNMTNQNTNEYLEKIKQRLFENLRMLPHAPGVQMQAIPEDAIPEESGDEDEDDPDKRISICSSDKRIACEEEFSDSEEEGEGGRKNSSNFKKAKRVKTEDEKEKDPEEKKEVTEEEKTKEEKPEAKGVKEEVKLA
# protocol_notes: HDAC1 (ZMAL) fluorogenic activity assay
# Assay type: biochemical
# experimental_setup: at 1 μM; read-out: HDAC1 (ZMAL) percent enzyme inhibition
measured_attribute: inhibition at 1 µM (%)

• O=C(NO)C1CCN(CCc2cccc(Br)c2)CC1 = -5
• O=C(NO)C1CCN(CC(c2ccccc2)c2ccccc2)CC1 = -7

(1) O=C(NO)C1CCN(CCNCc2ccc(Br)cc2)CC1
(2) O=C(NO)C1CCN(Cc2ccccc2)CC1
(3) O=C(NO)C1CCN(CCCc2ccccc2)CC1
(4) O=C(NO)C1CCN(Cc2ccc(-c3ccccc3)cc2)CC1
With regard to inhibition at 1 µM, arrange the entries in ascending order, please. To answer, arrange all of the labels according to the requested order.
1, 3, 4, 2
(1: -8%, 3: 2%, 4: 5%, 2: 8%)

* * *

# target_desc: HDAC6 (2nd catalytic domain)-nanoluciferase fusion in HeLa cells (Homo sapiens, UniProt Q9UBN7)
# Sequence (Q9UBN7 482-800 limits assumed): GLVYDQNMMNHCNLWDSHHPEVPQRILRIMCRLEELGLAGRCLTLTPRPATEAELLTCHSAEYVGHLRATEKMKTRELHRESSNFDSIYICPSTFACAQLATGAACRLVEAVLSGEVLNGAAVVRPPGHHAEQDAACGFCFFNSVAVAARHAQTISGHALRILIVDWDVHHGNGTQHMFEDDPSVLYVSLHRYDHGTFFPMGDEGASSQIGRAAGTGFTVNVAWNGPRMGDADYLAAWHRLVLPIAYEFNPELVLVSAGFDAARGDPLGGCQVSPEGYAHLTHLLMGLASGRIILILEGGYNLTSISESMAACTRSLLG
# protocol_notes: BRET intracellular target engagement assay, HDAC6
measured_attribute: IC50 (µM)

(A) O=C(CCCN(CCC(=O)Nc1ccccc1)Cc1ccccc1)NO [DKFZ-718]
(B) CN(CCCC(=O)NO)CCNC(=O)c1c2ccccc2cc2ccccc12 [DKFZ-771]
(C) CN(CCCC(=O)NO)CCNC(=O)c1cccc2cn[nH]c12 [DKFZ-757]
Would you mind ranking these compounds by ascending IC50? The reply should contain the labels ordered as requested.
B, A, C

* * *

# target_desc: HDAC1 (Homo sapiens)
# Construct: purchased BPS Bioscience 50051
# protocol_notes: HDAC1 (ZMAL) fluorogenic activity assay
# Type: biochemical
# experimental_setup: at 10 μM; read-out: HDAC1 (ZMAL) percent enzyme inhibition
measured_attribute: inhibition at 10 µM (%)

* O=C(NO)C1CCN(Cc2ccc(-c3ccccc3)cc2)CC1 [DH35] | 35

(a) O=C(NO)C1CCN(CCc2ccc(Br)cc2)CC1 [DH67]
(b) O=C(NO)C1CCN(CCCc2ccccc2)CC1 [DH53]
Please let me know which one, a or b , has a lower measured inhibition at 10 µM value. Answer = label.
a
(a: 6%, b: 29%)
